test: Bmi1 luciferase reporter increase in mESCs, primary screen, esBAF inhibitor project, mouse ES cells, Bmi1 luciferase knock-in, single point (AID 602393); conditions: 24 h, at 12.5 µM, 100% = twice the neutral-well signal;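 note: 0% = median of the plate's neutral control wells and 100% = double that signal; a rise in the Bmi1 reporter signal indicates esBAF inhibition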
In all, about 350,000 compounds went through this assay and about 7,000 (2%) were called active. Cut-off read from the data, not from the text of the source: active = activation above about 40%; inconclusive = no clear call, values can overlap the other calls; inactive = below that. The sample as a whole holds a higher share of actives than the screen did.
Returns: one label drawn from active, inactive

# example entries with known answers
compound=COc1ccc(S(=O)(=O)Nc2ccc3c(c2)CC(=O)N([C@@H](C)CO)C[C@@H](C)[C@H](CN(C)S(=O)(=O)c2ccccc2)O3)cc1 class_label=inactive
compound="CC=Cc1ccc2n(c1=O)C[C@@H]1[C@@H](CO)[C@H](C(=O)NCCCN3CCOCC3)[C@H]2N1Cc1cocn1 (mixture of isomers)" class_label=inactive
compound=CC1CCN(C(=O)COC(=O)c2cc(S(=O)(=O)N3CCOCC3)ccc2Cl)CC1 class_label=inactive

What is the recorded call for this compound in the test? "COc1ccc(S(=O)(=O)N(C)C)cc1NC(=O)CSc1ncccn1" inactive

What is the recorded call for this compound in the test? "CCC(=O)N1[C@H](C(=O)NCc2ccc(F)cc2)[C@@H](CO)[C@@H]2Cn3c(ccc(C4=CCCCC4)c3=O)[C@@H]21" inactive

What is the recorded call for this compound in the test? "O=C(C[C@@H]1CC[C@H]2[C@@H](COC[C@H](O)CN2C(=O)Nc2ccccc2)O1)NCc1ccccc1F" inactive

What is the recorded call for this compound in the test? "O=C(C[C@H]1CC[C@@H](NC(=O)c2ccccc2)[C@@H](CO)O1)NCc1ccncn1" inactive

What is the recorded call for this compound in the test? "CN(C)S(=O)(=O)c1ccc2oc(SCC(=O)Nc3ccccc3F)nc2c1" active

What is the recorded call for this compound in the test? "CN(C(=O)COC(=O)c1cc(=O)[nH]c2ccccc12)C1CCCCC1" active

* * *

assay: Bmi1 luciferase reporter increase in mESCs, primary screen, esBAF inhibitor project, mouse ES cells, Bmi1 luciferase knock-in, single point (AID 602393); settings: 24 h, at 12.5 µM, stronger effect = higher value, 100% = twice the neutral-well signal;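 note: 0% = median of the plate's neutral control wells and 100% = double that signal; a rise in the Bmi1 reporter signal indicates esBAF inhibition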
In all, about 350,000 compounds went through this assay and about 7,000 (2%) were called active. The sample holds actives, similar compounds and a random draw of the others, so the mix is not that of the screen.
Recorded Endpoint: reporter increase (%)
Quick reminder: number only, in %, skip the unit.

Completed entries (count: 8):
molecule=O=C(c1cccc(N2CCCC2=O)c1)N1CCOCC1 reported=-0.631
molecule=COc1ccccc1-c1cn(CC[C@H]2CC[C@H](NC(=O)Cc3ccccn3)[C@H](CO)O2)nn1 reported=0.363
molecule=O=C(c1cc(-c2cccc(O)c2)on1)N1CCc2ccccc2C1 reported=10.2
molecule=Cc1cc(C)c(C)c(S(=O)(=O)N2CCN(C(=O)c3ccc4c(=O)n5c(nc4c3)CCC5)CC2)c1C reported=-1.07
molecule=COc1ccc(CNC(=O)C[C@H]2C[C@H]3c4cc(NS(C)(=O)=O)ccc4O[C@H]3[C@@H](CO)O2)cc1 reported=-3.21
molecule=Cc1c(C(=O)N2CCCc3ccccc32)sc2nc(-c3ccccc3)cn12 reported=69.3
molecule=O=C(c1noc2c1CCCC2)N1CCc2ccccc2C1 reported=63.6
molecule=Oc1ccc(-n2nnnc2SCc2c(F)cccc2Cl)cc1 reported=-6.31

Data request, read-out reporter increase, for "Cc1ccc(NC(=O)C(=O)NCc2ccco2)c(C)c1" 47.2
